target: Vasopressin V1a receptor (Rattus norvegicus, UniProt P30560); assay: Concentration required to displace 50% of [3H]arginine vasopressin from rat liver arginine vasopressin 1A (AVP-V1a) site.
Sequence (P30560 whole entry): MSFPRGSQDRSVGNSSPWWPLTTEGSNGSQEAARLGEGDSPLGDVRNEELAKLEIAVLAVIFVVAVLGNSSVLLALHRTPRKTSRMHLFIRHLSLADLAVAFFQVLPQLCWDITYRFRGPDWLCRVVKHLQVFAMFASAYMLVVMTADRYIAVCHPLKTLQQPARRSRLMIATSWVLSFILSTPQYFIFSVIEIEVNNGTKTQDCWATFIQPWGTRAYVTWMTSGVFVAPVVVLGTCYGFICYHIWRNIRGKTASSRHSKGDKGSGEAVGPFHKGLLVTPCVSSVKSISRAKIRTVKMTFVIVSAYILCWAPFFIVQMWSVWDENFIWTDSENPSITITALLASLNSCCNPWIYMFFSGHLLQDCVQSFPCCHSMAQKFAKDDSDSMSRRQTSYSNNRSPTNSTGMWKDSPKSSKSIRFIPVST
Where a SMILES comes first, the peptide text is derived from it. [ ]: non-standard residue; d: D form. d2Nal = N[C@H](Cc1ccc2ccccc2c1)C(=O)O; dNMeH = CN[C@H](Cc1c[nH]cn1)C(=O)O; dNMeF = CN[C@H](Cc1ccccc1)C(=O)O; Pip = O=C(O)[C@@H]1CCCCN1; dPip = O=C(O)[C@H]1CCCCN1; Nle = CCCC[C@H](N)C(=O)O
Measurement Type: IC50 (nM)

# Molecule, System Tested, Unit Abbreviation, IC50
measured = [
    ("CCCC[C@@H]1NC(=O)[C@@H](Cc2c[nH]c3ccccc23)NC(=O)[C@@H]2CCCN2C(=O)[C@@H](Cc2c[nH]cn2)NC(=O)[C@@H]2CCCCN2C(=O)[C@H]2CCCCN2C1=O (cyclo([Nle][dPip][Pip][dH]P[dW]))", "Vasopressin V1a receptor (Rattus norvegicus, UniProt P30560)", "nM", 1300),
]

[1] CC[C@H](C)[C@@H]1NC(=O)[C@@H](Cc2c[nH]c3ccccc23)NC(=O)[C@@H]2CCCN2C(=O)[C@@H](Cc2c[nH]cn2)N(C)C(=O)[C@@H]2CCCCN2C(=O)[C@H]2CCCCN2C1=O (cyclo(I[dPip][Pip][dNMeH]P[dW]))
[2] CC[C@H](C)[C@@H]1NC(=O)[C@@H](Cc2ccc3ccccc3c2)NC(=O)[C@@H]2CCCN2C(=O)[C@@H](Cc2ccccc2)N(C)C(=O)[C@H](CCCCN)NC(=O)[C@H]2CCCCN2C1=O (cyclo(I[dPip]K[dNMeF]P[d2Nal]))
# input Hey, between 1 and 2 which has a smaller measured IC50? Reply with the label of the item you choose.
# output 2
